meta.source: patent US20200262885A1

# target: human glucagon receptor (human, UniProt P47871 26-477)
# methodDescription: cell-based or functional assay
Note to self: EC50 hGLUC R [pM] under 0.8 pM means Fulfilled, ties and anything higher get Not fulfilled.

binder="XSQGTFTSDTSKQLESRRAQEFIEWLLATGPESGAPPPSX (Tza at 1; Cys(VS-DO3A(Ga)) at 40; C-terminal amide) [SEQ ID NO: 48]" categorylabel="Not fulfilled"
binder="XXQGTFTSDYSKQLDEQRAQEFIEWLLATGPESGAPPPSX (Tza at 1; D-Ser at 2; Cys(VS-DO3A(Ga)) at 40; C-terminal amide) [SEQ ID NO: 86]" categorylabel="Not fulfilled"
binder="XSQGTFTSDYSKQLESRRAQEFIEWLLAGGPESGAPPPSX (Tza at 1; Cys(VS-DO3A(Ga)) at 40; C-terminal -OH) [SEQ ID NO: 80]" categorylabel=Fulfilled
binder="XSQGTFTSDYSKQLESRRAQEFIEWLLAGGPESGAPPPSX (Tza at 1; Cys(mal-NODAGA(Ga)) at 40; C-terminal amide) [SEQ ID NO: 10]" categorylabel="Not fulfilled"
binder="XSQGTFTSDXSKQXESRRAQEFIEWLLXGGPESGAPPPSX (Tza at 1; Tle at 10; Nle at 14; Bal at 28; Cys(VS-DO3A(Ga)) at 40; C-terminal amide) [SEQ ID NO: 12]" categorylabel=Fulfilled
binder="XSQGTFTSDYSKQLESRRAQEFIEWLLAGGPESGAPPPSX (Tza at 1; Cys(mal-NOTA(Ga)) at 40; C-terminal amide) [SEQ ID NO: 9]" categorylabel="Not fulfilled"
